Biological target: T1, Mutant 3 of human SPNS2 (FLAG tag inserted in extracellular loop 7) (human, UniProt Q8IVW8 1-549)
T1 construct: on HEK293 cells; also called extracellular loop 7 mutant
T1 sequence: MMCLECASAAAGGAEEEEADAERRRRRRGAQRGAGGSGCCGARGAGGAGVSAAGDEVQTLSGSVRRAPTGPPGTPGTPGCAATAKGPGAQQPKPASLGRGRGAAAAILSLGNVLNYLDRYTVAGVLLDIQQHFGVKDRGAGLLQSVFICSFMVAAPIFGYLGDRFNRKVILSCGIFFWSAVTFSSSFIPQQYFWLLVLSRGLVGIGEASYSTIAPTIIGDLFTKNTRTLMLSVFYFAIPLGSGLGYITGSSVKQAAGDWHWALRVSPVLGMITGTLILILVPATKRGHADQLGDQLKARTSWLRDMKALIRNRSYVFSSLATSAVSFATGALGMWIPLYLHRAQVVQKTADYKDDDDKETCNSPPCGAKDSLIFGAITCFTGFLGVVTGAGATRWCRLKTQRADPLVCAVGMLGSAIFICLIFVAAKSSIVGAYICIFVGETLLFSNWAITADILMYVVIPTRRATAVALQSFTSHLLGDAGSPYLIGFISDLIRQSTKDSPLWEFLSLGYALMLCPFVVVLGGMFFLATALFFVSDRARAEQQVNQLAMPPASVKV
Test: flow cytometry, FLAG-insertion mutant
RECORDED ENDPOINT: FITC+/Alexa 647+ cell rate ratio

INSERT INTO measurements (binder, recorded_endpoint, observed) VALUES
  ('64-0807A (antibody, IgG2b, V domains shown) VH: EVQVVESGGGLVQPGRSMKLSCAALGFTFRDYYMAWVRQTPTKGLEWVAAISTGGGNTYYRDSVKGRFTISRDNAKSTLYLQMDSLRSDDTATYYCARNPYGNYFDYWGQGVMVTVSS VL: QFVLSQPNSVSTNLGSTVKLSCKRSTGNIGSNYVHWYQRHEGRSPTTLIYRDDKRPNGVPDRFSGSIDRSSNSALLTINNVQTEDEADYFCQSYSGGMYLFGGGTKLTVL', 'FITC+/Alexa 647+ cell rate ratio', '≥ 0.5 ratio');

Next up:
Ask | Need FITC+/Alexa 647+ cell rate ratio, item 82-1109A (antibody, IgG2b, V domains shown) VH: QVQLQQSGVELAKPGSSVKISCKASGNTFTSNYITWIKQTPGQGLEYIGYINTGSGKTYYNEKFKGKATLTADKSSSTAFMQLSSLTPDDSAVYFCASLTGVDYFDDWGQGVMVTVSS VL: DDIVLTQSPALAPSLGQRATISCRASQSVRMSGYNLMHWYQQKPGQQPKLLIYDASKLASGIPARFSGSGSGTDFTLTIDPVQSDDIATYYCQQSKDDPYTFGAGTKLELRR
Reply | < 0.1 ratio
